molecular target: Luciferin 4-monooxygenase (Photinus pyralis); assay: CCTE_Simmons_QuantiLum_inhib_2: CCTE's Firefly Luciferase Inhibition Assay, Simmons Lab (AID 2283767)
Results filed as inconclusive are left out. Calls of active or inactive are those of the source. Rule for the calls: active = hit-call score of the fitted dose curve at least 0.9, where 1 is the maximum; inconclusive = response in the unintended direction; inactive = score below 0.9.
// one of active, inactive, no free text

CO[C@H]1/C=C/O[C@@]2(C)Oc3c(C)c(O)c4c(O)c(c(/C=N/N5CCN(C)CC5)c(O)c4c3C2=O)NC(=O)/C(C)=C\C=C\[C@H](C)[C@H](O)[C@@H](C)[C@@H](O)[C@@H](C)[C@H](OC(C)=O)[C@@H]1C | active

Shift focus to the following entry.
Q) How did this test come out for CC/C(=C(/CC)c1ccc(O)cc1)c1ccc(O)cc1 ?
A) inactive

###

target: Cellular tumor antigen p53 (Homo sapiens) (UniProt P04637); test: TOX21_p53_BLA_p2_ratio: Tox21 HCT-116 p53 Agonism Beta-lactamase Assay, Ratio, Phase 2 (AID 2283592)
Sequence (P04637 whole entry, looked up): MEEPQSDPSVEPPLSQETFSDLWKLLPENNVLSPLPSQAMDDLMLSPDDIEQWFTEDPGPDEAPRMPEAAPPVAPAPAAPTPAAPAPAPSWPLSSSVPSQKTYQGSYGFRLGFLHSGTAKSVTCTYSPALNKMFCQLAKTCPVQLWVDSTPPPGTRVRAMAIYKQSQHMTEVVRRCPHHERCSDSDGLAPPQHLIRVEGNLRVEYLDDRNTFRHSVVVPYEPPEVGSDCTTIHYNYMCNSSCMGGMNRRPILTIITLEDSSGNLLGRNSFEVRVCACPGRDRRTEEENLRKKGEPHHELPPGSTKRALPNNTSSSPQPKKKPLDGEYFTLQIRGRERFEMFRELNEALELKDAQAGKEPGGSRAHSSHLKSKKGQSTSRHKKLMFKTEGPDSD
Results filed as inconclusive are left out. Calls of active or inactive are those of the source. The calls were made as follows: active = hit-call score of the fitted dose curve at least 0.9, where 1 is the maximum; inconclusive = response in the unintended direction; inactive = score below 0.9.
// one of YES for active, NO for inactive, no free text

Study these solved cases before continuing.
CCCCOC(=O)CC(CC(=O)OCCCC)(OC(C)=O)C(=O)OCCCC | NO
CCN(CC)C(=O)c1cc(S(=O)(=O)Cc2ccccc2)c(N2CCC(c3ccccc3)CC2)cc1N(CC)CCN(C)C | NO
Cc1cc2c(cc1C(F)(F)F)N(C(=O)Nc1ccc(Oc3cccnc3C)nc1)CC2 | NO

Shift focus to the following entry.
Q) How did this test come out for COc1ccc2cc(S(=O)(=O)N[C@H](CC(=O)N[C@H](Cc3ccc(CN4[C@H](C)CCC[C@@H]4C)cc3)C(=O)N(C)C(C)C)c3ccc4c(c3)OCO4)ccc2c1 ?
A) YES

###

read-out: Bcl-2 (BID) gene, BID (gene 637); experiment: LTEA_HepaRG_BID: Life Technologies and Expression Analysis (LTEA) Assay for Bcl-2 (BID) gene using HepaRG (AID 2283476); details: mRNA level, 48 h; actives raise or lower the signal
Calls of active or inactive are those of the source. Rule for the calls: active = hit-call score of the fitted dose curve at least 0.9, where 1 is the maximum; inactive = score below 0.9.
// one of true (active), false (inactive), no free text

Cc1cc2c(cc1C(F)(F)F)N(C(=O)Nc1ccc(Oc3cccnc3C)nc1)CC2 | true
CCN(Cc1cccnc1)C(=O)c1cccc(Cl)c1[C@]1(C)C(=O)N(Cc2ccc(OC)cc2OC)c2ccc(Cl)cc21 | false

Q) How did this test come out for c1ccc2ccccc2c1 ?
A) false

###

test: CCTE_Shafer_MEA_dev_mutual_information_norm: CCTE's Neural Network Formation Assay for Mutual Information Normalization, Shafer Lab (AID 2284091)
Activity calls are given as the source filed them. Rule for the calls: active = hit-call score of the fitted dose curve at least 0.9, where 1 is the maximum; inactive = score below 0.9.
// one of active, inactive, no free text

Study these solved cases before continuing.
O=C1O[C@H]([C@@H](O)CO)C(O)=C1O | inactive
CC(C)(c1cc(Br)c(O)c(Br)c1)c1cc(Br)c(O)c(Br)c1 | inactive
CN1C(=O)CC[C@H]1c1cccnc1 | inactive

Q) How did this test come out for Clc1ccccc1C(c1ccccc1)(c1ccccc1)n1ccnc1 ?
A) inactive

Q) How did this test come out for CC/C(=C(/CC)c1ccc(O)cc1)c1ccc(O)cc1 ?
A) active

###

read-out: Tumor necrosis factor (Homo sapiens) (UniProt P01375); assay: BSK_LPS_TNFa: BioMAP Diversity Plus: LPS Assay for Tumour Necrosis Factor alpha (TNFa) Biomarker Activity (AID 2283085); settings: primary human HUVEC with PBMC; actives raise or lower the signal
Sequence (P01375 whole entry, looked up): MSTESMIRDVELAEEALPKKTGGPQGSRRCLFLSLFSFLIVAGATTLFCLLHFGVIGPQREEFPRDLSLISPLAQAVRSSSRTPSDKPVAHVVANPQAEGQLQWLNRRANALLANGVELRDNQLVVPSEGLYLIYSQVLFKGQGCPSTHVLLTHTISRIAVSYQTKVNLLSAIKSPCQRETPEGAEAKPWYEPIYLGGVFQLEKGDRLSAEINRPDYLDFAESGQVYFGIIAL
The source made the active and inactive calls. The calls were made as follows: active = hit-call score of the fitted dose curve at least 0.9, where 1 is the maximum; inactive = score below 0.9.
// one of active, inactive, no free text

OC12N=C(c3ccccc3)SC1Cc1cc(Cl)ccc12 (configuration not stated) | inactive
CN1C(=O)CC[C@H]1c1cccnc1 | inactive
CC(C)(C)c1csc(-c2cc3cc(OCc4ccccc4CC(=O)O)ccc3o2)n1 | active
Oc1ccccc1 | inactive
C[C@]12CC[C@@H]3c4ccc(O)cc4CC[C@H]3[C@@H]1CCC2=O | inactive

Q) How did this test come out for O=c1[nH]sc2ccccc12 ?
A) active

Q) How did this test come out for COCC(C)OCC(C)OCC(C)O (configuration not stated) ?
A) inactive

Q) How did this test come out for O=C(O)Cn1c(=O)n(Cc2ccc(Br)cc2F)c(=O)c2ccc(Cl)cc21 ?
A) active

Q) How did this test come out for COc1cccc([C@H](O)C2CCN(CCc3ccc(F)cc3)CC2)c1OC ?
A) inactive

Q) How did this test come out for CC(C)(c1cc(Br)c(O)c(Br)c1)c1cc(Br)c(O)c(Br)c1 ?
A) active

Q) How did this test come out for Cc1c2ccccc2c(C)c2c1ccc1ccccc12 ?
A) inactive

Q) How did this test come out for Cc1ncc(CO)c(CO)c1O ?
A) inactive

Q) How did this test come out for Cc1cc2c(cc1C(F)(F)F)N(C(=O)Nc1ccc(Oc3cccnc3C)nc1)CC2 ?
A) inactive

Q) How did this test come out for O=C(OCCCCCCOC(=O)c1ccccc1)c1ccccc1 ?
A) active

This collection of values is drawn from PubChem BioAssay (EPA / NIEHS).
